- measurement_target: full-length beta-Catenin (Uniprot ID P35222) (Homo sapiens, UniProt P35222)
- Construct: 10 nM full-length beta-Catenin (Uniprot ID P35222)
- Sequence (P35222 1-781): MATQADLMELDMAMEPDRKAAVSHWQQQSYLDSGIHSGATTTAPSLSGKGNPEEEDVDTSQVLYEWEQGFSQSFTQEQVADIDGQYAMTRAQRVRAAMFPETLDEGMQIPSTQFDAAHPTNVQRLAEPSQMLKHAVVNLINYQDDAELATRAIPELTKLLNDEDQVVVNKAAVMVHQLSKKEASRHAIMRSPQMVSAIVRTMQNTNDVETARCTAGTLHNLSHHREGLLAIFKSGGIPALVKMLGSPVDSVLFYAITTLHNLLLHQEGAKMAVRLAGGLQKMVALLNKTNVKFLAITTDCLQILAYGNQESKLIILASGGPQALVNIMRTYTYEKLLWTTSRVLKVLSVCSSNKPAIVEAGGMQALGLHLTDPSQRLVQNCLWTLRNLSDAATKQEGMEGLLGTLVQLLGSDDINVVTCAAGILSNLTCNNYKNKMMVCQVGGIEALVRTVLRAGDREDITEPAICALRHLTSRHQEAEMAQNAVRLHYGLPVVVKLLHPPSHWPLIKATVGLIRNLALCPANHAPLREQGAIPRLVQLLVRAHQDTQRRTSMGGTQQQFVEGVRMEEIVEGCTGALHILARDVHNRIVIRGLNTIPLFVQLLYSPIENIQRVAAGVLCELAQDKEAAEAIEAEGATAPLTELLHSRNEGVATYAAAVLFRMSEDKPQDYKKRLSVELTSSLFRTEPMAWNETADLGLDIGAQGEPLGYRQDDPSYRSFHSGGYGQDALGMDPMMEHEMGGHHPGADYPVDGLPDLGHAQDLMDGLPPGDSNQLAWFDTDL
- test_method_notes: Fluorescence polarization IC50 (beta-catenin / 5FAM-TCF4 10-53 competition)
- Assay type: binding
- assay_conditions: fluorescence polarization; read-out: beta-Catenin FP IC50
Listed here are compounds together with their documented pIC50.
Would you please state pIC50, meaning minus log10 of the concentration in mol/L, as a bare number?

compound: CC(=O)N1CCC[C@]12CC=CCCCC1(CCCC=CCCCCCC[C@@](C)(C(=O)N[C@@H](Cc3ccccc3)C(=O)N[C@@H](Cc3csc4ccccc34)C(=O)N[C@@H](CCC(N)=O)C(N)=O)NC(=O)[C@H](C(C)C)NC(=O)[C@H](Cc3ccccc3)NC(=O)[C@H](C)NC(=O)[C@H](C)NC(=O)[C@H](CC(=O)O)NC(=O)[C@H](CC(=O)NC(C)C)NC1=O)NC(=O)[C@H](C)NC(=O)[C@H](CC(=O)O)NC2=O (stereo partly drawn) [I-535]
data_value: 5.30

compound: CC(=O)N1CCC[C@]12CC=CCCCC1(CCCC=CCCCOC(=O)N3CC[C@@](C(=O)N[C@@H](Cc4ccccc4C(F)(F)F)C(=O)N[C@@H](Cc4ccc(Cl)c(Cl)c4)C(=O)N[C@@H](CO)C(N)=O)(C3)NC(=O)[C@H](CC(C)C)NC(=O)[C@H](Cc3ccccc3)NC(=O)[C@H](C)NC(=O)[C@H](C)NC(=O)[C@H](Cc3cccc(C(=O)O)c3)NC(=O)[C@H](CC(=O)O)NC1=O)NC(=O)[C@H](CC(C)(C)C)NC(=O)[C@H](CC(=O)O)NC2=O (stereo partly drawn) [I-2218]
data_value: 7.47

Next:
What value of pIC50 has been reported for the following compound? CC[C@H](C)[C@@H]1NC(=O)[C@H](CC(=O)O)NC(=O)[C@]2(CC=CCCCC3(CCCC=CCCCCCC[C@@](C)(C(=O)N[C@@H](Cc4ccsc4)C(=O)N[C@@H](Cc4csc5ccccc45)C(=O)N[C@@H](CCC(N)=O)C(N)=O)NC(=O)[C@H](CC(N)=O)NC(=O)[C@H](Cc4ccccc4)NC(=O)[C@H](C)NC(=O)[C@H](C)NC(=O)[C@H](CCC(=O)O)NC(=O)[C@H](CC(=O)O)NC3=O)NC1=O)CCCN2C(C)=O (stereo partly drawn) [I-520]
7.35

----------
Listed here are compounds together with their documented IC50.
- measurement_target: full-length beta-Catenin (Uniprot ID P35222) (Homo sapiens, UniProt P35222)
- Construct: 10 nM full-length beta-Catenin (Uniprot ID P35222)
- test_method_notes: Fluorescence polarization IC50 (beta-catenin / 5FAM-TCF4 10-53 competition)
- Type: binding
- assay_conditions: fluorescence polarization; read-out: beta-Catenin FP IC50
Please reply with the bare figure in nM and do not write the unit itself.

See these solved cases before continuing.
compound: CCOC(=O)C[C@@H]1NC(=O)[C@H](CC(=O)O)NC(=O)C2(CCCC=CCCCOC(=O)N3CC[C@@](C(=O)N[C@@H](Cc4ccsc4)C(=O)N[C@@H](Cc4csc5ccccc45)C(=O)N[C@@H](CCC(N)=O)C(N)=O)(C3)NC(=O)[C@H](CC(C)C)NC(=O)[C@H](Cc3ccccc3)NC(=O)[C@H](C)NC(=O)[C@H](C)NC1=O)CCCC=CC[C@]1(CCCN1C(C)=O)C(=O)N[C@@H](CC(=O)O)C(=O)N[C@@H](CC(C)(C)C)C(=O)N2 (stereo partly drawn)
IC50 (nM): 463
--
compound: CC(=O)N1CCC[C@]12CC=CCCCC1(CCCC=CCCCOC(=O)N3CC[C@@](C(=O)N[C@@H](Cc4ccsc4)C(=O)N[C@@H](Cc4csc5ccccc45)C(=O)N[C@@H](CCC(N)=O)C(N)=O)(C3)NC(=O)[C@H](Cn3cc(CN4CCNCC4)nn3)NC(=O)[C@H](Cc3ccccc3)NC(=O)[C@H](C)NC(=O)[C@H](C)NC(=O)[C@H](CN(CC(=O)O)CC(F)(F)F)NC(=O)[C@H](CC(=O)O)NC1=O)NC(=O)[C@H](CC(C)(C)C)NC(=O)[C@H](CC(=O)O)NC2=O (stereo partly drawn) [I-1864]
IC50 (nM): 14
--
compound: CC[C@H](C)[C@@H]1NC(=O)[C@H](CC(=O)O)NC(=O)[C@]2(CC=CCCCC3(CCCC=CCCCCCC[C@@](C)(C(=O)N[C@@H](Cc4ccccc4)C(=O)N[C@@H](Cc4csc5ccccc45)C(=O)N[C@@H](CCC(N)=O)C(N)=O)NC(=O)[C@H](CCC(N)=O)NC(=O)[C@H](Cc4ccccc4)NC(=O)[C@H](C)NC(=O)[C@H](C)NC(=O)[C@H](CN(CC(=O)O)CC(F)(F)F)NC(=O)[C@H](CC(=O)O)NC3=O)NC1=O)CCCN2C(C)=O (stereo partly drawn) [I-611]
IC50 (nM): 55
--
compound: CC(=O)N1CCC[C@]12CC=CCCCC1(CCCC=CCCCOC(=O)N3CC[C@@](C(=O)N[C@@H](Cc4ccccc4C(F)(F)F)C(=O)N[C@@H](Cc4csc5c(F)cccc45)C(=O)N[C@@H](C)C(N)=O)(C3)NC(=O)[C@H](CC(C)C)NC(=O)[C@H](Cc3ccccc3)NC(=O)[C@H](C)NC(=O)[C@H](CCC(N)=O)NC(=O)[C@H](Cc3cccc(C(=O)O)c3)NC(=O)[C@H](CC(=O)O)NC1=O)NC(=O)[C@H](CC(C)(C)C)NC(=O)[C@H](CC(=O)O)NC2=O (stereo partly drawn)
IC50 (nM): 29
--
compound: CC(=O)N1CCC[C@]12CC=CCCCC1(CCCC=CCCCOC(=O)N3CC[C@@](C(=O)N[C@@H](Cc4ccsc4)C(=O)N[C@@H](Cc4csc5ccccc45)C(=O)N[C@@H](CCC(N)=O)C(N)=O)(C3)NC(=O)[C@H](CC(C)C)NC(=O)[C@H](Cc3ccccc3)NC(=O)[C@H](CCN3CCN(C)CC3)NC(=O)[C@H](C)NC(=O)[C@H](CC(=O)O)NC(=O)[C@H](CC(=O)O)NC1=O)NC(=O)[C@H](CC(C)(C)C)NC(=O)[C@H](CC(=O)O)NC2=O (stereo partly drawn)
IC50 (nM): 89

Lab note: need IC50 for CC(=O)N1CCC[C@]12CC=CCCCC1(CCCC=CCCCOC(=O)N3CC[C@@](C(=O)N[C@@H](Cc4ccsc4)C(=O)N[C@@H](Cc4csc5ccccc45)C(=O)N[C@@H](Cc4c[nH]cn4)C(N)=O)(C3)NC(=O)[C@H](CC(N)=O)NC(=O)[C@H](Cc3ccccc3)NC(=O)[C@H](C)NC(=O)[C@H](C)NC(=O)[C@H](CC(=O)O)NC(=O)[C@H](CC(=O)O)NC1=O)NC(=O)[C@H](CC(C)(C)C)NC(=O)[C@H](CC(=O)O)NC2=O (stereo partly drawn) [I-695] on full-length beta-Catenin (Uniprot ID P35222) (Homo sapiens, UniProt P35222), anyone have it?
5

Can you handle CC(=O)N1CCC[C@]12CC=CCCCC1(CCCC=CCCCOC(=O)N3CC[C@@](C(=O)N[C@@H](Cc4ccsc4)C(=O)N[C@@H](Cc4csc5ccccc45)C(=O)N[C@@H](CCC(N)=O)C(N)=O)(C3)NC(=O)[C@H](Cn3cc(CN4CCNCC4)nn3)NC(=O)[C@H](Cc3ccccc3)NC(=O)[C@H](C)NC(=O)[C@H](C)NC(=O)[C@H](CN(CC(=O)O)CC(F)(F)F)NC(=O)[C@H](CC(=O)O)NC1=O)NC(=O)[C@H](CC(C)(C)C)NC(=O)[C@H](CC(=O)O)NC2=O (stereo partly drawn) [I-1863] next?
10

Can you handle CC(=O)N1CCC[C@]12CC=CCCCC1(CCCC=CCCCCCC[C@@](C)(C(=O)N[C@@H](Cc3ccccc3C(F)(F)F)C(=O)N[C@@H](Cc3csc4ccccc34)C(=O)N[C@H](CO)[C@@H](C)O)NC(=O)[C@H](CCO)NC(=O)[C@H](Cc3ccccc3)NC(=O)[C@H](C)NC(=O)[C@H](C)NC(=O)[C@H](CC(=O)O)NC(=O)[C@H](CC(=O)O)NC1=O)NC(=O)[C@H](CC(C)(C)C)NC(=O)[C@H](CC(=O)O)NC2=O (stereo partly drawn) next?
73

Can you handle CC(=O)N1CCC[C@]12CC=CCCCC1(CCCC=CCCCOC(=O)N3CC[C@@](C(=O)N[C@@H](Cc4ccsc4)C(=O)N[C@@H](Cc4csc5ccccc45)C(=O)N[C@@H](CCC(N)=O)C(N)=O)(C3)NC(=O)[C@H](CC(C)C)NC(=O)[C@H](Cc3ccccc3)NC(=O)[C@H](C)NC(=O)[C@H](C)NC(=O)[C@H](CCN(CCC(F)(F)F)CC(=O)O)NC(=O)[C@H](CC(=O)O)NC1=O)NC(=O)[C@H](CC(C)(C)C)NC(=O)[C@H](CC(=O)O)NC2=O (stereo partly drawn) next?
21
